B1: library; a variant is named by its letters at N, in order (parent)
chain: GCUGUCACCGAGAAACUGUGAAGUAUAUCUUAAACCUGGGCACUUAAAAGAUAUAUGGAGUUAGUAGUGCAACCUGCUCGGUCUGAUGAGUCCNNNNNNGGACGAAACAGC

# Variants of: B1
# PROTOCOL SUMMARY: FACS-Seq fitted mean relative fluorescence mCherry/BFP with ligand (log10 relative fluorescence); HEK293T; ligand: cyclic di-GMP (c-di-GMP-II aptamer); ligand concentration (+) FACS-Seq: 1 mM; higher = higher reporter protein expression
# RUN CONDITIONS: ligand present: yes
Note to self: values exactly at -0.09 are Met. So FACS-Seq fitted mean (log10) at or above -0.09 is Met, below is Not met.

MUTANT LABEL: AAACAU
ASSIGNED CATEGORY: Met
--
MUTANT LABEL: GCUCGU
ASSIGNED CATEGORY: Met
--
MUTANT LABEL: GUUCUA
ASSIGNED CATEGORY: Not met
--
MUTANT LABEL: GCUGGU
ASSIGNED CATEGORY: Met
--
MUTANT LABEL: GCUGGA
ASSIGNED CATEGORY: Not met
--
MUTANT LABEL: UAGGCU
ASSIGNED CATEGORY: Met
--
MUTANT LABEL: CCGAGA
ASSIGNED CATEGORY: Met
--
MUTANT LABEL: AAAAUC
ASSIGNED CATEGORY: Met
--
MUTANT LABEL: UCACGA
ASSIGNED CATEGORY: Met
--
MUTANT LABEL: AAUGAG
ASSIGNED CATEGORY: Met
--
MUTANT LABEL: UUUAAU
ASSIGNED CATEGORY: Met
--
MUTANT LABEL: GUCAAA
ASSIGNED CATEGORY: Met
--
MUTANT LABEL: GUGAAA
ASSIGNED CATEGORY: Not met
--
MUTANT LABEL: CGAUGA
ASSIGNED CATEGORY: Not met
--
MUTANT LABEL: GUCCAA
ASSIGNED CATEGORY: Met
--
MUTANT LABEL: AACGCU
ASSIGNED CATEGORY: Met
--
MUTANT LABEL: CAAAUU
ASSIGNED CATEGORY: Not met
--
MUTANT LABEL: AACACA
ASSIGNED CATEGORY: Met
--
MUTANT LABEL: GCGUUU
ASSIGNED CATEGORY: Not met
--
MUTANT LABEL: GAGCGU
ASSIGNED CATEGORY: Not met
--
MUTANT LABEL: ACGGUU
ASSIGNED CATEGORY: Not met
--
MUTANT LABEL: CAACCU
ASSIGNED CATEGORY: Met
--
MUTANT LABEL: AGGUCA
ASSIGNED CATEGORY: Not met
--
MUTANT LABEL: UGUAAA
ASSIGNED CATEGORY: Met
--
MUTANT LABEL: AUUCGG
ASSIGNED CATEGORY: Met
--
MUTANT LABEL: GUAUUU
ASSIGNED CATEGORY: Not met
--
MUTANT LABEL: GAAGAU
ASSIGNED CATEGORY: Met
--
MUTANT LABEL: CGACUA
ASSIGNED CATEGORY: Not met
--
MUTANT LABEL: GUACAA
ASSIGNED CATEGORY: Met
--
MUTANT LABEL: UGCUUU
ASSIGNED CATEGORY: Met
--
MUTANT LABEL: UUGGCU
ASSIGNED CATEGORY: Met
--
MUTANT LABEL: AACAAU
ASSIGNED CATEGORY: Met
--
MUTANT LABEL: GAGUAG
ASSIGNED CATEGORY: Not met
--
MUTANT LABEL: ACAUAA
ASSIGNED CATEGORY: Not met
--
MUTANT LABEL: CCUUAA
ASSIGNED CATEGORY: Not met
--
MUTANT LABEL: GCAGAG
ASSIGNED CATEGORY: Not met
--
MUTANT LABEL: AAGACA
ASSIGNED CATEGORY: Met
--
MUTANT LABEL: CUACAA
ASSIGNED CATEGORY: Not met
--
MUTANT LABEL: GUCCUG
ASSIGNED CATEGORY: Met
--
MUTANT LABEL: AAUAGU
ASSIGNED CATEGORY: Met
--
MUTANT LABEL: GUAAUG
ASSIGNED CATEGORY: Not met
--
MUTANT LABEL: CAUCUC
ASSIGNED CATEGORY: Not met
--
MUTANT LABEL: AGUGAA
ASSIGNED CATEGORY: Met
--
MUTANT LABEL: ACCGAA
ASSIGNED CATEGORY: Met
--
MUTANT LABEL: GACGAA
ASSIGNED CATEGORY: Met
--
MUTANT LABEL: AAGAGG
ASSIGNED CATEGORY: Not met
--
MUTANT LABEL: GUUCGU
ASSIGNED CATEGORY: Met
--
MUTANT LABEL: UUGACA
ASSIGNED CATEGORY: Not met
--
MUTANT LABEL: UAAGUG
ASSIGNED CATEGORY: Met
--
MUTANT LABEL: CACAGA
ASSIGNED CATEGORY: Met
--
MUTANT LABEL: GUCGCU
ASSIGNED CATEGORY: Not met
--
MUTANT LABEL: GAAUGC
ASSIGNED CATEGORY: Met
--
MUTANT LABEL: AAAAGA
ASSIGNED CATEGORY: Not met
--
MUTANT LABEL: GUUGCG
ASSIGNED CATEGORY: Met
--
MUTANT LABEL: UAAUGA
ASSIGNED CATEGORY: Not met
--
MUTANT LABEL: CUGAUA
ASSIGNED CATEGORY: Not met
--
MUTANT LABEL: CCCUCA
ASSIGNED CATEGORY: Not met
--
MUTANT LABEL: CUGCGA
ASSIGNED CATEGORY: Met
--
MUTANT LABEL: GCAGGU
ASSIGNED CATEGORY: Met
--
MUTANT LABEL: CAAAAC
ASSIGNED CATEGORY: Not met
--
MUTANT LABEL: UUCAAC
ASSIGNED CATEGORY: Met
--
MUTANT LABEL: CAAAAA
ASSIGNED CATEGORY: Not met
--
MUTANT LABEL: UGUUGA
ASSIGNED CATEGORY: Met
--
MUTANT LABEL: CUACGA
ASSIGNED CATEGORY: Met
--
MUTANT LABEL: UGCGUU
ASSIGNED CATEGORY: Met
--
MUTANT LABEL: GCUGUU
ASSIGNED CATEGORY: Not met
--
MUTANT LABEL: CUGAAA
ASSIGNED CATEGORY: Not met
--
MUTANT LABEL: AAUAGG
ASSIGNED CATEGORY: Not met
--
MUTANT LABEL: AGAACA
ASSIGNED CATEGORY: Met
--
MUTANT LABEL: GUUCCA
ASSIGNED CATEGORY: Not met
--
MUTANT LABEL: ACUUUA
ASSIGNED CATEGORY: Not met
